The entries below come with measured IC50 values attached.
# systemUnderTest: human NaV1.7 (Homo sapiens (Human))
# Sequence (Q15858 other isoform, or with tags, fused parts or gaps): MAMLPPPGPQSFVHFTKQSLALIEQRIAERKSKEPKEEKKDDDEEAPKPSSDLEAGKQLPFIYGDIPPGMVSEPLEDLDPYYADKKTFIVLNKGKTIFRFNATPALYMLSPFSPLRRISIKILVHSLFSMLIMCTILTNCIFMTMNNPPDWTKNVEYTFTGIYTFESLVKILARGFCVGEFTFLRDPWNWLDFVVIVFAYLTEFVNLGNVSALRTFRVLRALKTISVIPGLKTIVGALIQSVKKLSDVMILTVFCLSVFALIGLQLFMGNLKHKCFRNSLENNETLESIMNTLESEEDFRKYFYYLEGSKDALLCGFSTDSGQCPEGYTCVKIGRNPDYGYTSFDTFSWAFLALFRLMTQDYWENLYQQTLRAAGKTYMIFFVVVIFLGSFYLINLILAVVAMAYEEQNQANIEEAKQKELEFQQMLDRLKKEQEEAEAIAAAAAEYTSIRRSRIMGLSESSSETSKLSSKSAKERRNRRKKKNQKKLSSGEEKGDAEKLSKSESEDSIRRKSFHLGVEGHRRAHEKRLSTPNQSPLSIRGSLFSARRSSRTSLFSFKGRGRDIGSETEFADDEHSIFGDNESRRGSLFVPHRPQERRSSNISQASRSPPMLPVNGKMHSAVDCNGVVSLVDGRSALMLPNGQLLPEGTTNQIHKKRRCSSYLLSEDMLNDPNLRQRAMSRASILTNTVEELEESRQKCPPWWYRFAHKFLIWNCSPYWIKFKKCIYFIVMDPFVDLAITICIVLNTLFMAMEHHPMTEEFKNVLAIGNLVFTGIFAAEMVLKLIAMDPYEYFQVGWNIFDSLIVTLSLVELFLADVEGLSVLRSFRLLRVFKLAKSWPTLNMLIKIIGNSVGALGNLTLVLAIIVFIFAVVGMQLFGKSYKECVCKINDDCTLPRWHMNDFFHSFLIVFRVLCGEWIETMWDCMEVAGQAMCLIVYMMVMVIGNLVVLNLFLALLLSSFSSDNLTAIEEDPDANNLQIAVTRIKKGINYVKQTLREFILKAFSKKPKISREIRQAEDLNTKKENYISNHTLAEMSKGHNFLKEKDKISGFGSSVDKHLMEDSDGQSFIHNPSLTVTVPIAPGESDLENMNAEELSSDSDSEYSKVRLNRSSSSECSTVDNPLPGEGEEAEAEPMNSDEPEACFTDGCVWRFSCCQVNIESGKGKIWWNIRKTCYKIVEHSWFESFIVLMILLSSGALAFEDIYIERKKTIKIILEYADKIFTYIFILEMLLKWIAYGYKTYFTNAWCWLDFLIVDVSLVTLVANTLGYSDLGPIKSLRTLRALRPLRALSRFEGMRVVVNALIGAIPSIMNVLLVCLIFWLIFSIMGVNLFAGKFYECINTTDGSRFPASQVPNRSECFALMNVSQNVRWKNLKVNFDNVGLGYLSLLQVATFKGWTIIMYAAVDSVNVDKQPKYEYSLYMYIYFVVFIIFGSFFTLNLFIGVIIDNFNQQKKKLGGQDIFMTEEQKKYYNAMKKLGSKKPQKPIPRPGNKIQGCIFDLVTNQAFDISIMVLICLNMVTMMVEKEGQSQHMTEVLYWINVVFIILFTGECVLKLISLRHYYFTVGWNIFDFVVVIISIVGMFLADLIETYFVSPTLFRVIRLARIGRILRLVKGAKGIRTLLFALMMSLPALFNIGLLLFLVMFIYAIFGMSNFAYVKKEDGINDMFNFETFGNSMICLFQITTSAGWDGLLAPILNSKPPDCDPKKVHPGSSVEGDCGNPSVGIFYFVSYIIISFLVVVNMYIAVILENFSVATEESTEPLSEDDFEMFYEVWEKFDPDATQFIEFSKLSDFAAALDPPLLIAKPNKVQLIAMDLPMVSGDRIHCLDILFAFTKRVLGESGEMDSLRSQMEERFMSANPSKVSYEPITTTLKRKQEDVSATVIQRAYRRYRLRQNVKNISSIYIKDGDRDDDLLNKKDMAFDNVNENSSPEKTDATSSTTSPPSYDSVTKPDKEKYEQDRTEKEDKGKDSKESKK
# Sequence (Q07699 19-218 partner): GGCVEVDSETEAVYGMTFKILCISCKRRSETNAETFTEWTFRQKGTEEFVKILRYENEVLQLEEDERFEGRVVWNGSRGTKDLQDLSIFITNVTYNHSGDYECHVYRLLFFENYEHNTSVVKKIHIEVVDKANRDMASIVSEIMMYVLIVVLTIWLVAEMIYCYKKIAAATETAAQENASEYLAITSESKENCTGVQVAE
# protocolNotes: Patch voltage clamp electrophysiology assay, NaV1.7
# Assay type: cell-based
# conditionDescription: inactivated state; HEK-293 cells stably expressing NaV1.7 with β1 subunit; held at −60 mV; read-out: Human 1.7 EP (IC50 μM)
Quick reminder: number only, in µM, skip the unit.

As a guide, the following entries are already answered.
>>> recordednumber("CN(C)S(=O)(=O)NC(=O)c1cc(Cl)c(OCC23CC4CC(CC(F)(C4)C2)C3)cc1F")
0.00131
>>> recordednumber("CC1(C)C2CCC1(C)C(Oc1cc(F)c(C(=O)NS(C)(=O)=O)cc1Cl)C2 (stereo not shown)")
0.171
>>> recordednumber("CS(=O)(=O)NC(=O)c1cc(Cl)c(OC2[C@@H]3CC4C[C@H]2CC(Cl)(C4)C3)cc1F (stereo partly shown)")
0.027

# ---- query molecule ----
Entry CN(C)S(=O)(=O)NC(=O)c1cc(Cl)c(OC2CCC3(CCCCC3)CC2)cc1F — recorded IC50 = 0.0854

These measurements were taken from patent US9771376B2.
